tested.system: CD137 expressed on cells (CHO cells expressing CD137; Jurkat cells of the Promega CD137 luciferase reporter assay) (UniProt Q07011)
Sequence (Q07011 24-255 limits assumed): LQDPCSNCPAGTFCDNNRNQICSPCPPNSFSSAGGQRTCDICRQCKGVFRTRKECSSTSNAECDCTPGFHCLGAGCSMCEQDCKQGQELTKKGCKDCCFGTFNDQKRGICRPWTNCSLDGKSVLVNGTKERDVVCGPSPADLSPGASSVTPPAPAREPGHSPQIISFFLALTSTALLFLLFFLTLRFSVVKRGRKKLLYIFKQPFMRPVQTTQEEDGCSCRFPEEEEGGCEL
method.notes: cell-based or functional assay
Starred links: 1 amine or outer side, 2 acyl side, 3 side chain; linkers in the order of their positions; H or OH if unused. Positions of bridges follow the written chain, without caps; N, C: chain ends. Non-standard residues stand in square brackets, D forms with d. Chains are numbered I, II in the order given. No end group written: not given here. *: point of attachment. TATA = O=C(CC[*:1])N1CN(C(=O)CC[*:2])CN(C(=O)CC[*:3])C1; Dap(PYA) = diaminopropionic acid bearing 4-pentynoyl; Hyp = O=C(O)[C@@H]1C[C@@H](O)CN1; hArg = N=C(N)NCCCC[C@H](N)C(=O)O; tBuAla = CC(C)(C)C[C@H](N)C(=O)O; Nle = CCCC[C@H](N)C(=O)O; Pent4ynoyl = C#CCCC(=O)*; Dap = NC[C@H](N)C(=O)O; βAla = NCCC(=O)O; Sar = CNCC(=O)O
Please respond with reported Fold Induction over Background, CD137 reporter assay, co-culture with PC3 (EphA2) for every item in the list.
Numbers only, in fold.

heterotandem bicyclic peptide complex BCY10576 (linker I:4-I:11-I:18, II:1-II:8-II:15 via TATA; not fully specified (C-terminus); also: chains joined by PEG5 linker on chain 1 N-terminus, triazole to Dap(PYA)) peptide 1: A[hArg]DC[Hyp]LVNPLCLHP[dD]W[hArg]C peptide 2: Ac-C[tBuAla]PE[dA]PYCFADPY[Nle]C-{Dap(PYA)} :: 38

Batch lookup, Fold Induction over Background, CD137 reporter assay, co-culture with PC3 (EphA2) per entry.
1. heterotandem bicyclic peptide complex BCY10577 (linker I:14-I:21-I:28, II:1-II:8-II:15 via TATA; not fully specified (C-terminus); numbers in words are those of the source; also: chains joined by CH2 linker, triazole from PYA, linker on Dap side chain) peptide 1: {Pent4ynoyl-βAla}-[Sar][Sar][Sar][Sar][Sar][Sar][Sar][Sar][Sar][Sar]A[hArg]DC[Hyp]LVNPLCLHP[dD]W[hArg]C peptide 2: Ac-C[tBuAla]PE[dA]PYCFADPY[Nle]C[Dap]
2. heterotandem bicyclic peptide complex BCY10575 (linker I:4-I:11-I:18, II:1-II:8-II:15 via TATA; not fully specified (C-terminus); also: chains joined by PEG5 linker on chain 1 N-terminus, triazole to D-Lys(PYA)) peptide 1: A[hArg]DC[Hyp]LVNPLCLHP[dD]W[hArg]C peptide 2: Ac-C[tBuAla]PE[dK](Pent4ynoyl)PYCFADPY[Nle]CA

Response given:
1: 37; 2: 38
